# Target Or System: Influenza virus A/California/7/2009pdm (H1N1pdm) (Influenza A virus A/California/7/2009pdm (H1N1pdm))
# Assay: cell-based or functional assay
Value Type: HI activity

Here are 4 binders together with their reported answers.
Group 48 representative clone F083-389, Fab-PP-type antibody (Fab, V domains shown) VH: QVQLVQSGAEVKKPGSSVKVSCKASGDIFNKFAITWVRQAPGQGLEWMGGITALFATTSYAQKFQDRVTINWDESTTTAFMELSSLRFEDTAVYYCARGPNYYETYLDNWGQGTLVTVSS VL: EIVLTQSPTILSASVGDRVTITCRASQSISKWLAWYQQKPGKVPKLLIYMASTLESGVPSRFSGSGSGSEFTLTISSLQPGDFATYYCQQYNSYPRTFGQGTKVEINV
> 160 µg/mL
Group 37 representative clone F083-311, Fab-PP-type antibody (Fab, V domains shown) VH: QVQLVQSGSEVKKPGSSVKVSCKASGGIFRTNAISYVRQAPGQGLEWMGGITAIFGTPNYAQKFQGRVTIIADESTSTVYMELGSLTSEDTAVYYCATSGTYYVSYFDSWGQGTLVTVSS VL: DIVMTQSPGTLTLSPGERATLSCRASQSLYSSHLAWYQQKPGQPPRLLIYGASTRAPGTPDRFSGSGSGTDFTLTITALDPEDSAVYYCQQYGSSPITFGQGTRLEIK
> 160 µg/mL
Group 55 representative clone F083-305, Fab-PP-type antibody (Fab, V domains shown) VH: EVQLVESGAEVKKPGSSVKVSCKASGSIFSNYAISWVRQAPGQGLEWMGGIVPMFGTTRFAQKFQGRVTITADESRSTAYMELNNLISEDTAVYYCARAPLIYNWYFDLWGRGTLVTVSS VL: EIVLTQSPSFVSASVGDRVSITCRASQGISSWLAWYQQKPGKAPRLLIYGASNLQSGVPSRFSGSGSGTDYTLTINSLQPEDFATYYCQQARTFPVTFGQGTKLEIK
> 160 µg/mL
Group 52 representative clone F083-328, Fab-PP-type antibody (Fab, V domains shown) VH: QVQLVQSGAEVKKPGSSVKLSCKASGGTLRSYALSWVRQAPGEGLEWMGGISAIFNTATYAQNVQGRVTITADESTNTFYLEVSSLRSDDTAVYYCATSGTYYVSFFDYWGQGTLVTVSS VL: DIVLTQSPSTLSASVGDRVTLTCRASQSIGSLMAWYQQQPGKPPKLLIYRASNLETGVPSRFTGSGSGTEFALTISSLQPDDVGTYYCQHFKTFSRTFGQGTKVEIK
> 160 µg/mL

Consider the record given below.
Problem: HI activity lookup needed for Group 54 representative clone F083-354, Fab-PP-type antibody (Fab, V domains shown) VH: QVQLVQSGSEVKKPGSSVKVSCKASGGIFNSYGISWVRQAPGQGLEWMGGILAIFGTTNYAQKFQGRVTITADDSSKTVYMELSSLTSEDTAVYYCARGSTYYSSYFDQWGQGTLVTVSS VL: DIQMTQSPSSLSASVGDRVTITCRASQGIRNSLAWYQQKPGQVPKLLIYSATTLRSGVPYRFSGSGSGTDFTLTISGLQPEDVGTYFCHRYDSAPLTFGGGTRVALK , thanks.
Result: > 160 µg/mL
